These measurements were taken from the RNAGym collection of RNA variant scans (doi:10.7554/elife.80360).

B1: Twister Ribozyme (parent)
chain: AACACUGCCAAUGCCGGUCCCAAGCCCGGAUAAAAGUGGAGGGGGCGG

Variants of: B1
Experiment: self-cleavage, relative activity (ratio to wild type); higher = more cleavage; co-transcriptional
We'd kindly ask you to apply these self-cleavage classes: zone 1 (below 0.1), zone 2 (0.1 to below 0.4), zone 3 (0.4 or more)

Hello team, could you let me know which band the following variant falls into: G28U G41C
zone 2

Band for G36A G44A ?
zone 3

Returns: class label. Input: C25U U31C
zone 3

Lab log: C26G G38C — assign self-cleavage category
zone 2

Band of G17A U18G ?
zone 2

Which band does C8G A35C fall in?
zone 3

# classify by self-cleavage band: U6A G48C
zone 3

Form field 'band' for A1G C15G
zone 2

Entry A2C U12C belongs to which category?
zone 1

Tag the class for A11G C15U
zone 3

Using the reported self-cleavage, which band applies to G7A G16U ?
zone 2

Please indicate the class for A4G A40G based on its self-cleavage.
zone 2

Bin this entry: A33G G48C
zone 3

GET /class?item= G17C C20A
zone 1

Using the reported self-cleavage, which band applies to U37A G47A ?
zone 3

Which class is correct for the following variant? C20U G48U
zone 3

Returns: class label. Input: C5A G45U
zone 3

Place this variant in its band: G24A G43U
zone 1

Exam item: assign G38U A40C to the correct category.
zone 2

Dear colleague, I would appreciate it if you could identify the bin for A10C U37A and reply at your convenience.
zone 3

Class (by measured self-cleavage) for U6G G29C
zone 2

Which band does G24U G29C fall in?
zone 1

Kindly state the category for this variant: G28U A30C
zone 3

Please let me know in which category the item C19A G42A belongs.
zone 2

Class? Entry: C15G G16A
zone 3

Entry A30U G44C belongs to which category?
zone 3

Class? Entry: C25G A32C
zone 2

Entry A2U G42A belongs to which category?
zone 2

Band for the recorded self-cleavage of A2G A23C ?
zone 1

Class? Entry: A30C A33C
zone 3

Dear colleague, I would appreciate it if you could identify the bin for G38A G41C and reply at your convenience.
zone 2

Assign a bin to C15A A23C
zone 1

Classify this variant: A22C G24A
zone 2

Field: class (self-cleavage) — entry: U18G G36A
zone 1

Category of C9G A40G , please.
zone 2

For the record C5U G41U , report the class its self-cleavage corresponds to.
zone 2

Which class does G7C A35G fall in?
zone 1

Kindly identify the class of C20A G38U .
zone 1

State the band of C3G C14A
zone 3

Hello team, could you let me know which band the following variant falls into: C27U G38A
zone 3

Given U31A G45U , name the class its self-cleavage places it in.
zone 3

Textbook exercise: identify the category of the variant given here, C21A A34G , according to its measured value.
zone 1

Using the reported self-cleavage, which band applies to G36C U37A ?
zone 2

Hi, small favor: classify A23U G36U by its self-cleavage when you get a moment.
zone 1

Would you mind sorting C25A G28U into the appropriate category?
zone 2

Input G39C C46U ; output its category
zone 2

Hey, which category is G13A C26G in, do you know?
zone 1

Class label required: G7A C46U
zone 3

In plain terms, what class is A2U G39U ?
zone 2

Into which bin does this variant go? C14G C21A
zone 1

Could you tell me which band G17U G38U belongs to?
zone 2

Kindly identify the class of G42A G48C .
zone 3

Please classify: G38C G47C
zone 2

Which bin should I file C14A U37A under?
zone 3

Exam item: assign A2U C20G to the correct category.
zone 1

State the band of C5U C14A
zone 3

// return the class label for A33G G47A
zone 3

Which category fits this record: U31A U37A
zone 3

Which category does the recorded self-cleavage put G16U G38C in?
zone 3

Looking at A22U A34C , which class would you pick?
zone 1

# classify by self-cleavage band: C21G G45U
zone 1

Determine which band this variant sits in: G16C C20U
zone 3

Returns: class label. Input: A11G C21G
zone 1

For the record G29A G43C , report the class its self-cleavage corresponds to.
zone 2

Textbook exercise: identify the category of the variant given here, A34U G36U , according to its measured value.
zone 2

State the band of C5A G7A
zone 1

Consider A40G G43A . To which self-cleavage class does it belong?
zone 2

Entry G17A A32C belongs to which category?
zone 2

Category lookup for the variant G16A C20U
zone 3

Exercise: read the entry C25U C26A and state which class it falls under.
zone 1

Which category fits this record: C14U C25U
zone 3

Dear colleague, I would appreciate it if you could identify the bin for C3G A35G and reply at your convenience.
zone 2

Looking at U12G G24U , which class would you pick?
zone 2

Band for the recorded self-cleavage of C8G A33U ?
zone 2

Which bin should I file C20A C26U under?
zone 1

Exam item: assign C9G A11U to the correct category.
zone 3

Band assignment needed for A30C G42C please.
zone 2

Lab note: which band did A11G U31A land in?
zone 2

Which of the defined bands does the recorded self-cleavage of A11C U18A sit within?
zone 2

Hi there! Could you help me figure out the category for C8A G42A please?
zone 2

Hello team, could you let me know which band the following variant falls into: A34C G48A
zone 2

Hey, which category is C14G G39C in, do you know?
zone 1

Just checking, what class would you give G17C G44U here?
zone 2

Into which bin does this variant go? C14U G17A
zone 3

Note: place this variant into its band. Item: C15G G45A
zone 2

Category of C20U G39A :
zone 2
